Molecular target: human TYK2 (JH2domain-pseudokinase) (Homo sapiens (Human), UniProt P29597)
Sequence (P29597 556-888): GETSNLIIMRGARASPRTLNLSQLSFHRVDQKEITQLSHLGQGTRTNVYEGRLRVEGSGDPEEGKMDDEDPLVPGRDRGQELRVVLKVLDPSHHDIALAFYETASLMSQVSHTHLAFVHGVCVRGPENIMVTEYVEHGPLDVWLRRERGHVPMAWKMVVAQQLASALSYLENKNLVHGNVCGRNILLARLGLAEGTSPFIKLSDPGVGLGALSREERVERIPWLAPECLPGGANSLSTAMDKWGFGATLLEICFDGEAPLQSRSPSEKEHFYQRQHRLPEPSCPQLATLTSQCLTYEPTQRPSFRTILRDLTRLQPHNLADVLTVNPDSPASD
Assay: TYK2 JH2 Domain Binding Assay (KINOMEscan)
PARAMETER MEASURED: Kd

Reference set (8 entries):
1) CNc1cc(Nc2cccn(C3CCOCC3)c2=O)nc2c(C(=O)N[C@H]3C[C@H]3F)cnn12 :: < 0.2 nM
2) CNc1cc(Nc2cccn([C@H]3CCC[C@H](OC)C3)c2=O)nc2c(C(=O)N[C@@H]3CC3F)cnn12 (stereo partly shown) :: < 0.2 nM
3) CNc1cc(Nc2cccn(-c3cnn(CC4CCOCC4)c3)c2=O)nc2c(C(=O)NC3CC3)cnn12 :: < 0.2 nM
4) CNc1cc(Nc2cccc([C@H]3CCCOC3)n2)nc2c(C(=O)N[C@H]3CC[C@@H]3O)cnn12 :: < 0.2 nM
5) CNc1cc(-c2cn(CCCO)c3ncccc23)nc2c(C(=O)N[C@H]3CC[C@@H]3OC)cnn12 [I-1300] :: 1 to 10 nM
6) CNc1cc(Nc2cccc(N3CCC4(CCCO4)CC3)n2)nc2c(C(=O)NC3CC3)cnn12 :: 0.2 to 1 nM
7) CNc1cc(Nc2cccc(-c3cn(C)nc3F)n2)nc2c(C(=O)N[C@@H]3CC[C@@H]3O)cnn12 :: 1 to 10 nM
8) CNc1cc(Nc2cccn([C@@H]3CCC[C@@H]3O)c2=O)nc2c(C(=O)N[C@H]3CC[C@@H]3OC)cnn12 [I-1100] :: 0.2 to 1 nM

Now for the compound whose Kd we want.
What measured Kd goes with `CNc1cc(Nc2cccn([C@@H]3CC[C@H]3O)c2=O)nc2c(C(=O)N[C@@H]3CCC[C@@H](OC)C3)cnn12` ? > 10 nM
